biological target: UniProt Q99705; assay: Inhibitory activity towards melanin-concentrating hormone receptor 1 in IMR32 cells; assay type: cell-based, IMR-32
Sequence (Q99705 whole entry): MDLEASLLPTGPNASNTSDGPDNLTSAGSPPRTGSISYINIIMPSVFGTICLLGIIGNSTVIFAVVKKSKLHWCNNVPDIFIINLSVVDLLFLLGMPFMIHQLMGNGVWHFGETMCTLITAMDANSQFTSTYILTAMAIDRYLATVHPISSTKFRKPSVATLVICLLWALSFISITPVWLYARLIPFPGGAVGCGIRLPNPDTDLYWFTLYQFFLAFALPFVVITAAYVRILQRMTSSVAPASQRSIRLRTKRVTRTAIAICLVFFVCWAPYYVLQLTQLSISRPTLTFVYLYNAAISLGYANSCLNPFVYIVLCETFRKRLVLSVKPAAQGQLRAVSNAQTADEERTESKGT
log10(IC50) listing for selected compounds.
Scale type: logarithmic (base 10). Underlying IC50 unit: nM.

For orientation, consider the following solved cases.
In [3]: df
Out[3]:
                                smiles_text  target_under_test  number
0  O=C(NC1CCN(Cc2ccc3c(c2)OCO3)CC1)c1cc(Cl)cnc1NCC1CC1     UniProt Q99705    1.30
1  COc1ccc(NCc2c[nH]cn2)c(C(=O)NC2CCN(Cc3ccc4c(c3)OCO4)CC2)c1     UniProt Q99705    1.30

Lab request: please report log10(IC50) under test system UniProt Q99705 for O=C(NC1CCN(Cc2ccc3c(c2)OCO3)CC1)c1ccccc1NCc1c[nH]cn1 2.61

Then what about the compound O=C(NC1CCN(Cc2ccc3c(c2)OCO3)CC1)c1cc(Cl)cnc1NCc1ncc[nH]1 ? 1.30
